Entries and their abundance fitness
B1: Far upstream element-binding protein 1, residues 98 to 169; numbered along this chain, Q96AE4 (parent)
chain: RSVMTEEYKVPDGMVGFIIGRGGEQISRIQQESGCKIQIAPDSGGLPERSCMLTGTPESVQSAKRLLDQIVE

Variants of: B1
PROTOCOL_DESCRIPTION: abundance fitness (aPCA) (normalised: wild type 0, dead -1); higher = more abundant; growth selection in yeast, the domain comes from the species named
SETTINGS: Homo sapiens

MUTANT_ID: L66D
abundance fitness: -0.127

MUTANT_ID: F17C
abundance fitness: -0.009

MUTANT_ID: E72C
abundance fitness: -0.034

MUTANT_ID: D68A
abundance fitness: 0.004

MUTANT_ID: G16C
abundance fitness: -0.083

MUTANT_ID: R28L
abundance fitness: -0.071

MUTANT_ID: R65Q
abundance fitness: -0.02

MUTANT_ID: I37Q
abundance fitness: -0.911

MUTANT_ID: K64Q
abundance fitness: -0.104

MUTANT_ID: G22P
abundance fitness: -0.151

MUTANT_ID: I19K
abundance fitness: -0.021

MUTANT_ID: M4F
abundance fitness: -0.001

MUTANT_ID: P47K
abundance fitness: -0.004

MUTANT_ID: I19N
abundance fitness: -0.036

MUTANT_ID: I37V
abundance fitness: -0.038

MUTANT_ID: D42Y
abundance fitness: -0.113

MUTANT_ID: K9T
abundance fitness: -0.091

MUTANT_ID: I37N
abundance fitness: -0.848

MUTANT_ID: E48L
abundance fitness: 0.001

MUTANT_ID: A40F
abundance fitness: -0.101

MUTANT_ID: I29M
abundance fitness: -0.042

MUTANT_ID: R49G
abundance fitness: -0.088

MUTANT_ID: T5A
abundance fitness: 0

MUTANT_ID: L53R
abundance fitness: -1.05

MUTANT_ID: R28S
abundance fitness: -0.045

MUTANT_ID: S43G
abundance fitness: -0.066

MUTANT_ID: A63W
abundance fitness: -1.31

MUTANT_ID: C51K
abundance fitness: -1.12

MUTANT_ID: P47A
abundance fitness: -0.012

MUTANT_ID: G44H
abundance fitness: -0.092

MUTANT_ID: I18F
abundance fitness: -0.036

MUTANT_ID: E6R
abundance fitness: -0.02

MUTANT_ID: P47Q
abundance fitness: 0.019

MUTANT_ID: E58I
abundance fitness: -0.069

MUTANT_ID: V3D
abundance fitness: -0.042

MUTANT_ID: V60A
abundance fitness: -0.307

MUTANT_ID: P47T
abundance fitness: -0.007

MUTANT_ID: G44C
abundance fitness: -0.019

MUTANT_ID: C35D
abundance fitness: -0.81

MUTANT_ID: K64G
abundance fitness: -0.179

MUTANT_ID: L53Y
abundance fitness: -1.67

MUTANT_ID: K64S
abundance fitness: -0.126

MUTANT_ID: G20D
abundance fitness: -0.063

MUTANT_ID: V71H
abundance fitness: -0.128

MUTANT_ID: G34C
abundance fitness: -0.095

MUTANT_ID: L53I
abundance fitness: 0.048
